target: CYP2D6 (Homo sapiens, UniProt P10635); assay: Human liver microsome CYP inhibition assay, CYP2D6; assay type: biochemical; settings: human liver microsomes
Sequence (P10635 whole entry): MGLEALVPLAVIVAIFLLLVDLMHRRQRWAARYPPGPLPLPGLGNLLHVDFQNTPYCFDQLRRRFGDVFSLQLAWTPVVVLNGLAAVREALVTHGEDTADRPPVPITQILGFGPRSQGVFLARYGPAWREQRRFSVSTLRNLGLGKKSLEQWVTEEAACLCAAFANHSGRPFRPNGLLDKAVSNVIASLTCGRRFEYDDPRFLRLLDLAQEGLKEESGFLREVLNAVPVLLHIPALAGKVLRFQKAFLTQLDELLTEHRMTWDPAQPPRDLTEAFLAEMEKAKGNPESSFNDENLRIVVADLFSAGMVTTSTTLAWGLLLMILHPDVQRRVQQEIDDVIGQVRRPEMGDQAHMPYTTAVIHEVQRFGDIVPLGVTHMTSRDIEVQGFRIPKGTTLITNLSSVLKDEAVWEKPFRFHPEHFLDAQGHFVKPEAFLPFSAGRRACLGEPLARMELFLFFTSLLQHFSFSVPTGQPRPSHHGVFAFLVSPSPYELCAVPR
Property Measured: inhibition at 5 min, 50 µM (%)
Reply with just the number (in %).

Item under review: CC(=O)N1CCC(C(=O)N2CCN3C(=O)c4cc(-c5ccccc5)ccc4NC(=O)C3C2)CC1 (stereo not shown) . Reported inhibition at 5 min, 50 µM?
16.9

----------
molecular target: CYP2C9 (Homo sapiens); experiment: Human liver microsome CYP inhibition assay, CYP2C9; type: biochemical; settings: human liver microsomes
Sequence (P11712 whole entry): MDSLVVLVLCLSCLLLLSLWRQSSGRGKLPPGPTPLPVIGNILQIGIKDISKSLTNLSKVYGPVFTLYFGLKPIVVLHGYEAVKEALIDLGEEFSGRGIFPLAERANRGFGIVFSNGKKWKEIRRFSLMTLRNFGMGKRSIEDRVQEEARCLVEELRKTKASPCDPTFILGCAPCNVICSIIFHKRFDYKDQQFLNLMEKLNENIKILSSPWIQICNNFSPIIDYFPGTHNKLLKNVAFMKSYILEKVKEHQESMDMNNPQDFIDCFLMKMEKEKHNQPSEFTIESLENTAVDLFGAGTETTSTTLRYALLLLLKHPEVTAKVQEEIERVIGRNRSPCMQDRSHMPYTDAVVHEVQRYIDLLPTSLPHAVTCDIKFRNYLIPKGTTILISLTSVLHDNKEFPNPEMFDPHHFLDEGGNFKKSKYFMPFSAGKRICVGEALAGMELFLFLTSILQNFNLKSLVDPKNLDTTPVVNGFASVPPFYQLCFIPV
Property Measured: inhibition at 5 min, 50 µM (%)
Reply with just the number (in %).

Item under review: CC(=O)N1CCC(C(=O)N2CCN3C(=O)c4cc(-c5ccccc5)ccc4NC(=O)C3C2)CC1 (stereo not shown) . Reported inhibition at 5 min, 50 µM?
11.4

Data origin, for the record: paper PMC12777986
